assay_target: human uPAR (uPAR-Fc) (Homo sapiens)
Construct: comprising amino acids Leu23-Arg303 according to UniProt entry Q03405.1; purchased R&D Systems 10378-UK-100
Sequence (Q03405 23-303): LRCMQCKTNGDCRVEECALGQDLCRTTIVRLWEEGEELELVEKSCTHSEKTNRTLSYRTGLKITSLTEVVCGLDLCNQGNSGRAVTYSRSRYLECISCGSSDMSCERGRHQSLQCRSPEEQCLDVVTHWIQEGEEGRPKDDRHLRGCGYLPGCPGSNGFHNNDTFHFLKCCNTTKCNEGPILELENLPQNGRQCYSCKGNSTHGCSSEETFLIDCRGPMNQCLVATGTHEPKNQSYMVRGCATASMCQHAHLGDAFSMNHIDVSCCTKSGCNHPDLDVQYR
method_description: Surface plasmon resonance (SPR) assay, single cycle kinetics
Format: binding
condition_summary: pKD category for uPAR SPR activity assay; uPAR-Fc on Protein A-Chip, 25°C; read-out: pKD CAT (converted)
Where a SMILES comes first, the peptide text is derived from it. Bridges are numbered along the chain shown (N, C = ends). [ ]: non-standard residue; d: D form. The star is where a group is joined. DOTA = O=C(O)CN1CCN(CC(=O)O)CCN(CC(=O)*)CCN(CC(=O)O)CC1; Phe(4-Cl) = N[C@@H](Cc1ccc(Cl)cc1)C(=O)O; Hyp = O=C(O)[C@@H]1C[C@@H](O)CN1; Pentanoyl(4-Me) = CC(C)CCC(=O)*; Cit = NC(=O)NCCC[C@H](N)C(=O)O; dNMeA = CN[C@H](C)C(=O)O; Nva = CCC[C@H](N)C(=O)O; Pentanoyl = CCCCC(=O)*; Sar = CNCC(=O)O
measurement_type: Kd

Some compounds with known Kd results, for comparison:
# compound, Kd
records = [
    ("CCCCC(=O)N[C@H]1CSSC[C@@H](C(N)=O)NC(=O)[C@H](CCC)NC(=O)[C@H]([C@@H](C)CC)NC(=O)[C@@H]2C[C@@H](O)CN2C(=O)[C@@H](C)N(C)C(=O)[C@H](Cc2ccccc2)NC(=O)[C@H](Cc2ccc(O)cc2)NC(=O)[C@H](CCC(N)=O)NC(=O)[C@H](CCCNC(=N)N)NC1=O [UPAR-211] (Pentanoyl-CRQYF[dNMeA][Hyp]I[Nva]C-NH2; disulfide 1-10)", "> 100 nM"),
    ("CCCCC(=O)N[C@H]1CSSC[C@@H](C(N)=O)NC(=O)[C@H](CCC)NC(=O)[C@H]([C@@H](C)CC)NC(=O)CN(C)C(=O)[C@@H]2CCCN2C(=O)[C@H](Cc2ccccc2)NC(=O)[C@H](Cc2ccc(O)cc2)NC(=O)[C@H](CCCCNC(=O)CN2CCN(CC(=O)O)CCN(CC(=O)O)CCN(CC(=O)O)CC2)NC(=O)[C@H](CCCNC(N)=O)NC1=O [UPAR-177] (Pentanoyl-C[Cit]K(DOTA)YFP[Sar]I[Nva]C-NH2; disulfide 1-10)", "1.58 to 10 nM"),
    ("CC[C@H](C)[C@@H]1NC(=O)[C@@H](C)NC(=O)[C@@H]2CCCN2C(=O)[C@H](Cc2ccccc2)NC(=O)[C@H](Cc2ccc(O)cc2)NC(=O)[C@H](CCC(N)=O)NC(=O)[C@@H](C)NC(=O)[C@@H](NC(=O)CCC(C)C)CSSC[C@@H](C(N)=O)NC(=O)[C@H](CC(C)C)NC1=O [UPAR-231] ({Pentanoyl(4-Me)}-C[dA]QYFP[dA]ILC-NH2; disulfide 1-10)", "10 to 100 nM"),
]

Quick batch: Kd for everything below.
1. CC[C@H](C)[C@@H]1NC(=O)[C@@H](C)NC(=O)[C@@H]2CCCN2C(=O)[C@H](Cc2ccccc2)NC(=O)[C@H](Cc2ccc(O)cc2)NC(=O)[C@H](CCC(N)=O)NC(=O)[C@H](C)NC(=O)[C@@H](NC(=O)CCC(C)C)CSSC[C@@H](C(N)=O)NC(=O)[C@H](CC(C)C)NC1=O [UPAR-168] ({Pentanoyl(4-Me)}-CAQYFP[dA]ILC-NH2; disulfide 1-10)
2. CCCCC(=O)N[C@H]1CSSC[C@@H](C(N)=O)NC(=O)[C@H](CCC)NC(=O)[C@H]([C@@H](C)CC)NC(=O)[C@@H]2C[C@@H](O)CN2C(=O)[C@@H]2CCCN2C(=O)[C@H](Cc2ccc(Cl)cc2)NC(=O)[C@H](Cc2ccc(O)cc2)NC(=O)[C@H](CCCCNC(=O)CN2CCN(CC(=O)O)CCN(CC(=O)O)CCN(CC(=O)O)CC2)NC(=O)[C@H](CCCNC(N)=O)NC1=O [UPAR-233] (Pentanoyl-C[Cit]K(DOTA)Y[Phe(4-Cl)]P[Hyp]I[Nva]C-NH2; disulfide 1-10)

Return:
["< 1.58 nM", "< 1.58 nM"]
